Assay: Cytotoxicity against MDCK cells infected with Influenza A virus A/Puerto Rico/8/34 (H1N1) assessed as reduction in cell viability
Assay type: toxicity, cell-based, Canis lupus familiaris
Conditions: dog
measuredParameter: CC50 (mM)
One number for each entry, in mM.

Below are 2 compounds. Give each one its CC50.
1. CC(C)(C)c1noc([C@]23CC[C@H](CC2=O)C3(C)C)n1
2. CC1(C)[C@@H]2CC[C@@]1(c1nc(Cc3ccc(F)cc3)no1)C(=O)C2

[1.14, 0.497]

====

Assay: Selectivity index, ratio of CC50 for cytotoxicity against MDCK cells infected with Influenza A virus A/Puerto Rico/8/34 (H1N1) to IC50 for antiviral activity against Influenza A virus A/Puerto Rico/8/34 (H1N1) infected in MDCK cells
Type: toxicity, cell-based
Details: dog; read-out: Ratio CC50/IC50
measuredParameter: selectivity ratio
Give bare numbers.

Check out these entries, answers already filled in.
CC1(C)[C@@H]2CC[C@@]1(C(=O)O/N=C(\N)c1ccccc1F)C(=O)C2	5
CC1(C)[C@@H]2CC[C@@]1(C(=O)O/N=C(\N)Cc1ccc(Br)cc1)C(=O)C2	4
CC1(C)[C@@H]2CC[C@@]1(C(=O)O/N=C(\N)c1ccncc1)C(=O)C2	11
CC/C(N)=N/OC(=O)[C@]12CC[C@H](CC1=O)C2(C)C	5

Below are 5 molecules. Give each one its selectivity ratio.
1. CC1(C)[C@@H]2CC[C@@]1(c1nc(-c3ccccc3F)no1)C(=O)C2
2. CC1(C)[C@@H]2CC[C@@]1(C(=O)O/N=C(\N)c1ccc(Br)cc1)C(=O)C2
3. CC1(C)[C@@H]2CC[C@@]1(c1nc(-c3ccc(Br)cc3)no1)C(=O)C2
4. CC1(C)[C@@H]2CC[C@@]1(C(=O)O/N=C(\N)c1ccc(Cl)cc1)C(=O)C2
5. CC1(C)[C@@H]2CC[C@@]1(c1nc(-c3ccccc3)no1)C(=O)C2

1. 37
2. 31
3. 6
4. 17
5. 37

Below are 6 molecules. Give each one its selectivity ratio.
1. CC1(C)[C@@H]2CC[C@@]1(C(=O)O/N=C(\N)c1cccc(F)c1)C(=O)C2
2. CC1(C)[C@@H]2CC[C@@]1(C(=O)O/N=C(\N)c1ccc(F)cc1)C(=O)C2
3. CC1(C)[C@@H]2CC[C@@]1(C(=O)O/N=C(\N)c1ccccc1)C(=O)C2
4. CC1(C)[C@@H]2CC[C@@]1(C(=O)O/N=C(\N)Cc1cccc(F)c1)C(=O)C2
5. CC(C)/C(N)=N/OC(=O)[C@]12CC[C@H](CC1=O)C2(C)C
6. CC1(C)[C@@H]2CC[C@@]1(c1nc(-c3ccc(C(F)(F)F)cc3)no1)C(=O)C2

[26, 29, 5, 3, 14, 5]
